Numbers sourced from the NIST ThermoML archive (doi:10.1016/j.jct.2011.09.028).

test: activity coefficient (dimensionless); of the first substance listed, at infinite dilution; xn = mol fraction of the nth substance listed; conditions: 333.15 K; 101 kPa; Liquid; Chromatography; x1 = 0

- Molecule: "C[N+](=O)[O-] [nitromethane] + CCn1cc[n+](C)c1.N#C[B-](C#N)(C#N)C#N"
  activity coefficient: 0.423
- Molecule: "CCCO [propan-1-ol] + CCn1cc[n+](C)c1.N#C[B-](C#N)(C#N)C#N"
  activity coefficient: 1.42
- Molecule: "COC(C)(C)C [2-methoxy-2-methylpropane] + CCn1cc[n+](C)c1.N#C[B-](C#N)(C#N)C#N"
  activity coefficient: 2.85
- Molecule: "ClCCl [dichloromethane] + CCn1cc[n+](C)c1.N#C[B-](C#N)(C#N)C#N"
  activity coefficient: 0.682

====

assay: activity coefficient (dimensionless); of the first substance listed, at infinite dilution; xn = mol fraction of the nth substance listed; conditions: 353.15 K; 101 kPa; Liquid; Chromatography; x1 = 0
Listing: activity coefficient of selected compounds

- Compound: "CCCCCCCC [octane] + CCn1cc[n+](C)c1.N#C[B-](C#N)(C#N)C#N"
  activity coefficient: 47
- Compound: "C1CCCCC1 [cyclohexane] + CCn1cc[n+](C)c1.N#C[B-](C#N)(C#N)C#N"
  activity coefficient: 11.1
- Compound: "CCC1CCCCC1 [ethylcyclohexane] + CCn1cc[n+](C)c1.N#C[B-](C#N)(C#N)C#N"
  activity coefficient: 353
- Compound: "FC(F)(F)C(Cl)Br (stereo not drawn) [1-bromo-1-chloro-2,2,2-trifluoroethane] + CCn1cc[n+](C)c1.N#C[B-](C#N)(C#N)C#N"
  activity coefficient: 1.41
- Compound: "COC(C)(C)C [2-methoxy-2-methylpropane] + CCn1cc[n+](C)c1.N#C[B-](C#N)(C#N)C#N"
  activity coefficient: 2.95
- Compound: "CC(C)=O [acetone] + CCn1cc[n+](C)c1.N#C[B-](C#N)(C#N)C#N"
  activity coefficient: 0.479
- Compound: "CCCO [propan-1-ol] + CCn1cc[n+](C)c1.N#C[B-](C#N)(C#N)C#N"
  activity coefficient: 1.22
- Compound: "CC#N [acetonitrile] + CCn1cc[n+](C)c1.N#C[B-](C#N)(C#N)C#N"
  activity coefficient: 0.432

====

experiment: activity coefficient (dimensionless); of the first substance listed, at infinite dilution; xn = mol fraction of the nth substance listed; conditions: 353.15 K; 101 kPa; Liquid; Chromatography; x1 = 0
Readout Type: activity coefficient

- Compound: "CC(C)OC(C)C [diisopropyl ether] + CCn1cc[n+](C)c1.N#C[B-](C#N)(C#N)C#N"
  Readout Type: "activity coefficient"
  Assay Value: 7.13
- Compound: "COC(C)=O [methyl ethanoate] + CCn1cc[n+](C)c1.N#C[B-](C#N)(C#N)C#N"
  Readout Type: "activity coefficient"
  Assay Value: 0.723
- Compound: "c1ccccc1 [benzene] + CCn1cc[n+](C)c1.N#C[B-](C#N)(C#N)C#N"
  Readout Type: "activity coefficient"
  Assay Value: 1.19
- Compound: "C=CCCCCCC [oct-1-ene] + CCn1cc[n+](C)c1.N#C[B-](C#N)(C#N)C#N"
  Readout Type: "activity coefficient"
  Assay Value: 23.3
- Compound: "COCCOC [1,2-dimethoxyethane] + CCn1cc[n+](C)c1.N#C[B-](C#N)(C#N)C#N"
  Readout Type: "activity coefficient"
  Assay Value: 0.574
- Compound: "Cc1ccccc1 [toluene] + CCn1cc[n+](C)c1.N#C[B-](C#N)(C#N)C#N"
  Readout Type: "activity coefficient"
  Assay Value: 1.74
- Compound: "ClC(Cl)Cl [trichloromethane] + CCn1cc[n+](C)c1.N#C[B-](C#N)(C#N)C#N"
  Readout Type: "activity coefficient"
  Assay Value: 0.926
- Compound: "CCCCCCC [heptane] + CCn1cc[n+](C)c1.N#C[B-](C#N)(C#N)C#N"
  Readout Type: "activity coefficient"
  Assay Value: 32.3
- Compound: "c1ccsc1 [thiophene] + CCn1cc[n+](C)c1.N#C[B-](C#N)(C#N)C#N"
  Readout Type: "activity coefficient"
  Assay Value: 0.978
